Biological target: Human immunodeficiency virus type 1 protease (Human immunodeficiency virus 1)
Field 'label' (enum: rule met / rule not met). Set to rule met when IC50 is strictly under 2 nM; else rule not met.

Recorded results for 3 compounds are shown here.
CC(=O)N[C@@H](CSc1ccc2ccccc2n1)C(=O)N[C@@H](Cc1ccccc1)[C@H](O)Cc1ccccc1C(=O)NC(C)(C)C; rule not met
CC(C)(C)NC(=O)c1ccccc1C[C@@H](O)[C@H](Cc1ccccc1)NC(=O)[C@H](CSc1ccc2ccccc2c1)NS(C)(=O)=O; rule met
CC(C)(C)NC(=O)c1ccccc1C[C@@H](O)[C@H](Cc1ccccc1)NC(=O)[C@H](CS(=O)(=O)c1ccc(F)cc1)NS(C)(=O)=O; rule met

Ask: Just wondering, is IC50 of CC(=O)N[C@@H](CSc1ccccc1)C(=O)N[C@@H](Cc1ccccc1)[C@H](O)Cc1ccccc1C(=O)NC(C)(C)C below 2 nM?
Reply: rule not met

Ask: Just wondering, is IC50 of CC(C)(C)NC(=O)c1ccccc1C[C@@H](O)[C@H](Cc1ccccc1)NC(=O)[C@H](CSc1ccc(F)cc1)NS(C)(=O)=O below 2 nM?
Reply: rule not met

Ask: Just wondering, is IC50 of CC(=O)N[C@@H](C[S+]([O-])c1ccc2ccccc2n1)C(=O)N[C@@H](Cc1ccccc1)[C@H](O)Cc1ccccc1C(=O)NC(C)(C)C (some centres not stated) below 2 nM?
Reply: rule met

Ask: Just wondering, is IC50 of CC(C)(C)NC(=O)c1ccccc1C[C@@H](O)[C@H](Cc1ccccc1)NC(=O)[C@H](CSCc1ccccc1)NS(C)(=O)=O below 2 nM?
Reply: rule not met

Ask: Just wondering, is IC50 of COc1ccc(SC[C@H](NS(C)(=O)=O)C(=O)N[C@@H](Cc2ccccc2)[C@H](O)Cc2ccccc2C(=O)NC(C)(C)C)cc1 below 2 nM?
Reply: rule not met

* * *

molecules and their reported log10 IC50
Test system: CCRF-CEM
Test: Antiviral activity against CEM cells
Format: functional, cell-based
Settings: Homo sapiens
log10 IC50, nM

CC(C)(C)NC(=O)c1ccccc1C[C@@H](O)[C@H](Cc1ccccc1)NC(=O)[C@H](CS(=O)(=O)c1ccc(Cl)cc1)NS(C)(=O)=O; 2.14
CC(=O)N[C@@H](CSc1ccccc1)C(=O)N[C@@H](Cc1ccccc1)[C@H](O)Cc1ccccc1C(=O)NC(C)(C)C; 3.73
CC(C)(C)NC(=O)c1ccccc1C[C@@H](O)[C@H](Cc1ccccc1)NC(=O)[C@H](CSc1ccccc1)NS(C)(=O)=O; 3.64
CC(C)(C)NC(=O)c1ccccc1C[C@@H](O)[C@H](Cc1ccccc1)NC(=O)[C@H](CSc1ccc(C(F)(F)F)cc1)NS(C)(=O)=O; 3.47
COc1ccc(S(=O)(=O)C[C@H](NS(C)(=O)=O)C(=O)N[C@@H](Cc2ccccc2)[C@H](O)Cc2ccccc2C(=O)NC(C)(C)C)cc1; 1.73

Query CC(C)(C)NC(=O)c1ccccc1C[C@@H](O)[C@H](Cc1ccccc1)NC(=O)[C@H](C[S+]([O-])c1ccc(C(F)(F)F)cc1)NS(C)(=O)=O (stereo partly drawn) yields log10 IC50 of 1.72

Query CC(C)(C)NC(=O)c1ccccc1C[C@@H](O)[C@H](Cc1ccccc1)NC(=O)[C@H](C[S+]([O-])c1ccccn1)NS(C)(=O)=O (stereo partly drawn) yields log10 IC50 of 2.52

Query CC(=O)N[C@@H](CS(=O)(=O)c1ccc2ccccc2c1)C(=O)N[C@@H](Cc1ccccc1)[C@H](O)Cc1ccccc1C(=O)NC(C)(C)C yields log10 IC50 of 1.04

Query CC(C)(C)NC(=O)c1ccccc1C[C@@H](O)[C@H](Cc1ccccc1)NC(=O)[C@H](CS(=O)(=O)c1ccc(F)cc1)NS(C)(=O)=O yields log10 IC50 of 1.77

Query CC(C)(C)NC(=O)c1ccccc1C[C@@H](O)[C@H](Cc1ccccc1)NC(=O)[C@H](CSc1cccc2ccccc12)NS(C)(=O)=O yields log10 IC50 of 2.43
